- protocol-notes: activators raising VEGF transcript levels – cell-based, U2OS, RT-PCR, dry powder, set 2, orthogonal assay for HIF pathway activator project, dose response (AID 493238)
- conditions-used: U2OS VEGF mRNA induction, RT-PCR; at 38 µM (top of the series)
activation values for the molecules below.
Please respond with the number in % and leave the unit unwritten.

Worked cases, answers included:
{"smiles-entry": "O=C(NCC1CCCCC1)c1cc(-c2ccccc2)on1", "units-label": "%", "recorded-value": -2.71}
{"smiles-entry": "O=C(c1cc(-c2ccccc2)on1)N1CCC(N2CCCC2)CC1", "units-label": "%", "recorded-value": 13.9}
{"smiles-entry": "O=C(Nc1cnc2ccccc2c1)c1cc(-c2ccccc2)on1", "units-label": "%", "recorded-value": -1.59}

Give the measured activation of CN(C)CCNC(=O)c1cc(-c2ccccc2)on1 .
5.67

Value lookup for activation; key = O=C(Nc1ccc2ccccc2n1)c1cc(-c2ccccc2)on1
4.54

Origin of values: PubChem BioAssay AID493238
